As shown below, each of these compounds has a reported melting point value.

Recorded results for 10 compounds are shown here.
[[record]]
molecule = "COc1ccc(CN(C)c2nc(ON=Cc3ccc(Cl)cc3)ncc2F)cc1"
observable = "melting point"
observed_result = "79 to 83 °C"

[[record]]
molecule = "COc1ccc(C=NOc2ncc(F)c(/N=C/N(C)C)n2)cc1"
observable = "melting point"
observed_result = "243 to 245 °C (dec.)"

[[record]]
molecule = "Fc1cnc(ON=Cc2ccccc2)nc1NCc1ccccc1"
observable = "melting point"
observed_result = "111 to 113 °C"

[[record]]
molecule = "Nc1nc(ON=Cc2ccc(Cl)cc2)ncc1F"
observable = "melting point"
observed_result = "200 to 220 °C (dec.)"

[[record]]
molecule = "Cc1ccc(C=NOc2ncc(F)c(N)n2)cc1"
observable = "melting point"
observed_result = "201 to 220 °C (dec.)"

[[record]]
molecule = "Fc1cnc(ON=Cc2ccccc2)nc1NCc1ccc(Cl)cc1"
observable = "melting point"
observed_result = "127 to 128 °C"

[[record]]
molecule = "Fc1cnc(ON=Cc2ccc(Cl)cc2)nc1NCc1ccccc1"
observable = "melting point"
observed_result = "111 to 114 °C"

[[record]]
molecule = "CN(C)/C=N/c1nc(ON=Cc2ccccc2Cl)ncc1F"
observable = "melting point"
observed_result = "186 to 210 °C (dec.)"

[[record]]
molecule = "CC=NOc1ncc(F)c(NCc2ccc(OC)cc2)n1"
observable = "melting point"
observed_result = "79 to 82 °C"

[[record]]
molecule = "CC(C)C=NOc1ncc(F)c(N(C)C)n1"
observable = "melting point"
observed_result = "90 to 92 °C"


Please give the measured melting point for this compound: `CC=NOc1ncc(F)c(N)n1`
102 to 105 °C

Please give the measured melting point for this compound: `CC(C)C=NOc1ncc(F)c(N(C)Cc2ccc(Cl)cc2)n1`
224 to 228 °C (dec.)

Please give the measured melting point for this compound: `CN(Cc1ccc(Cl)cc1)c1nc(ON=Cc2ccc(Cl)cc2)ncc1F`
115 to 116 °C

Please give the measured melting point for this compound: `COc1ccc(C=NOc2ncc(F)c(N)n2)cc1`
250 to 270 °C (dec.)

Please give the measured melting point for this compound: `COc1ccc(C=NOc2ncc(F)c(NCc3ccccc3)n2)cc1`
180 to 194 °C

Please give the measured melting point for this compound: `CN(Cc1ccccc1)c1nc(ON=Cc2ccc(Cl)cc2)ncc1F`
78 to 81 °C

Please give the measured melting point for this compound: `COc1ccccc1C=NOc1ncc(F)c(/N=C/N(C)C)n1`
220 to 230 °C (dec.)

Please give the measured melting point for this compound: `Fc1ccccc1CNc1nc(ON=Cc2ccc(Cl)cc2)ncc1F`
98 to 103 °C

====

System: Mycosphaerella graminicola; anamorph: Septoria tritici; Bayer code SEPTTR
Experiment notes: Fungicidal activity: leaf blotch of wheat, one-day protectant (1DP) and three-day curative (3DC) tests on wheat plants
Type: in vivo, Septoria tritici on wheat plants (variety Yuma)
Condition details: Zymoseptoria tritici, 72 h; 25 ppm; three-day curative; rating of % disease control vs untreated inoculated plants; read-out: SEPTTR 25 ppm 3DC
Description: Evaluation of Fungicidal Activity: Leaf Blotch of Wheat (Mycosphaerella graminicola; anamorph: Septoria tritici; Bayer code […]) Wheat plants (variety Yuma) were grown from seed in a greenhouse in 50% mineral soil/50% soil-less Metro mix until the first leaf was fully emerged, with 7-10 seedlings per pot. […] The following table presents the activity of typical compounds of the present disclosure when evaluated in these experiments. […]
As shown below, each of these compounds has a reported pest or weed control at 25 ppm value.

Recorded results for 6 compounds are shown here.
[[record]]
molecule = "COc1ccc(C=NOc2ncc(F)c(NCc3ccc(OC)cc3)n2)cc1"
observable = "pest or weed control at 25 ppm"
observed_result = "0 to 25%"

[[record]]
molecule = "CC(C)C=NOc1ncc(F)c(NCc2ccccc2F)n1"
observable = "pest or weed control at 25 ppm"
observed_result = "51 to 75%"

[[record]]
molecule = "COc1ccc(CNc2nc(ON=CC(C)C)ncc2F)cc1"
observable = "pest or weed control at 25 ppm"
observed_result = "0 to 25%"

[[record]]
molecule = "CC=NOc1ncc(F)c(NCc2ccc(Cl)cc2)n1"
observable = "pest or weed control at 25 ppm"
observed_result = "0 to 25%"

[[record]]
molecule = "COc1ccc(CN(C)c2nc(ON=CC(C)C)ncc2F)cc1"
observable = "pest or weed control at 25 ppm"
observed_result = "26 to 50%"

[[record]]
molecule = "COc1ccc(CN(C)c2nc(ON=Cc3ccccc3)ncc2F)cc1"
observable = "pest or weed control at 25 ppm"
observed_result = "26 to 50%"


Please give the measured pest or weed control at 25 ppm for this compound: `COc1ccc(C=NOc2ncc(F)c(/N=C/N(C)C)n2)cc1`
76 to 100%

Please give the measured pest or weed control at 25 ppm for this compound: `CC(C)C=NOc1ncc(F)c(N)n1`
76 to 100%

Please give the measured pest or weed control at 25 ppm for this compound: `CN(C)/C=N/c1nc(ON=Cc2ccc(Cl)cc2)ncc1F`
76 to 100%

Please give the measured pest or weed control at 25 ppm for this compound: `Fc1cnc(ON=Cc2ccc(Cl)cc2)nc1NCc1ccc(Cl)cc1`
26 to 50%

====

As shown below, each of these molecules has a reported melting point value.

[[record]]
molecule = "CC(C)C=NOc1ncc(F)c(N)n1"
observed_result = "105 to 107 °C"


Please give the measured melting point for this molecule: `Nc1nc(ON=Cc2ccccc2Cl)ncc1F`
220 to 230 °C (dec.)

Please give the measured melting point for this molecule: `Nc1nc(ON=Cc2ccccc2)ncc1F`
151 to 153 °C

Please give the measured melting point for this molecule: `CC=NOc1ncc(F)c(NCc2ccc(Cl)cc2)n1`
116 to 117 °C

Please give the measured melting point for this molecule: `CN(C)c1nc(ON=Cc2ccc(Cl)cc2)ncc1F`
144 to 146 °C

Please give the measured melting point for this molecule: `CC=NOc1ncc(F)c(N(C)C)n1`
122 to 124 °C

Please give the measured melting point for this molecule: `COc1ccc(C=NOc2ncc(F)c(N(C)Cc3ccc(OC)cc3)n2)cc1`
46 to 50 °C

Please give the measured melting point for this molecule: `COc1ccc(CN(C)c2nc(ON=CC(C)C)ncc2F)cc1`
110 to 112 °C

====

Tested on: Mycosphaerella graminicola; anamorph: Septoria tritici; Bayer code SEPTTR
Experiment notes: Fungicidal activity: leaf blotch of wheat, one-day protectant (1DP) and three-day curative (3DC) tests on wheat plants
Assay type: in vivo, Septoria tritici on wheat plants (variety Yuma)
Condition details: Zymoseptoria tritici, 72 h; 25 ppm; three-day curative; rating of % disease control vs untreated inoculated plants; read-out: SEPTTR 25 ppm 3DC
Observable: pest or weed control at 25 ppm

[[record]]
molecule = "COc1ccc(C=NOc2ncc(F)c(N(C)C)n2)cc1"
observable = "pest or weed control at 25 ppm"
observed_result = "0 to 25%"

[[record]]
molecule = "CC=NOc1ncc(F)c(NCc2ccccc2F)n1"
observable = "pest or weed control at 25 ppm"
observed_result = "51 to 75%"

[[record]]
molecule = "Cc1ccc(C=NOc2ncc(F)c(N)n2)cc1"
observable = "pest or weed control at 25 ppm"
observed_result = "76 to 100%"

[[record]]
molecule = "CN(C)c1nc(ON=Cc2ccccc2)ncc1F"
observable = "pest or weed control at 25 ppm"
observed_result = "0 to 25%"

[[record]]
molecule = "CC(C)C=NOc1ncc(F)c(N(C)Cc2ccc(Cl)cc2)n1"
observable = "pest or weed control at 25 ppm"
observed_result = "26 to 50%"


Please give the measured pest or weed control at 25 ppm for this compound: `Fc1ccccc1CNc1nc(ON=Cc2ccccc2)ncc1F`
0 to 25%

Please give the measured pest or weed control at 25 ppm for this compound: `COc1ccc(C=NOc2ncc(F)c(NCc3ccccc3F)n2)cc1`
0 to 25%

Please give the measured pest or weed control at 25 ppm for this compound: `Fc1cnc(ON=Cc2ccccc2)nc1NCc1ccc(Cl)cc1`
26 to 50%

Please give the measured pest or weed control at 25 ppm for this compound: `Nc1nc(ON=Cc2ccc(Cl)cc2)ncc1F`
76 to 100%

====

As shown below, each of these compounds has a reported melting point value.

Please give the measured melting point for this compound: CC(C)C=NOc1ncc(F)c(NCc2ccc(Cl)cc2)n1 [Compound 30]
200 to 205 °C

Please give the measured melting point for this compound: Cc1ccc(C=NOc2ncc(F)c(/N=C/N(C)C)n2)cc1 [Compound 15]
247 to 253 °C (dec.)

====

System: Mycosphaerella graminicola; anamorph: Septoria tritici; Bayer code SEPTTR
Experiment notes: Fungicidal activity: leaf blotch of wheat, one-day protectant (1DP) and three-day curative (3DC) tests on wheat plants
Type: in vivo, Septoria tritici on wheat plants (variety Yuma)
Condition details: Zymoseptoria tritici, 72 h; 25 ppm; three-day curative; rating of % disease control vs untreated inoculated plants; read-out: SEPTTR 25 ppm 3DC
Observable: pest or weed control at 25 ppm

[[record]]
molecule = "COc1ccccc1C=NOc1ncc(F)c(/N=C/N(C)C)n1"
observed_result = "76 to 100%"

[[record]]
molecule = "Fc1ccccc1CNc1nc(ON=Cc2ccc(Cl)cc2)ncc1F"
observed_result = "0 to 25%"

[[record]]
molecule = "CC(C)C=NOc1ncc(F)c(N(C)Cc2ccccc2)n1"
observed_result = "0 to 25%"


Please give the measured pest or weed control at 25 ppm for this compound: `Fc1cnc(ON=Cc2ccc(Cl)cc2)nc1NCc1ccccc1`
0 to 25%

Please give the measured pest or weed control at 25 ppm for this compound: `Nc1nc(ON=Cc2ccccc2)ncc1F`
76 to 100%

Please give the measured pest or weed control at 25 ppm for this compound: `Nc1nc(ON=Cc2ccccc2Cl)ncc1F`
76 to 100%

Please give the measured pest or weed control at 25 ppm for this compound: `COc1ccccc1C=NOc1ncc(F)c(N)n1`
76 to 100%

Please give the measured pest or weed control at 25 ppm for this compound: `CC=NOc1ncc(F)c(NCc2ccc(OC)cc2)n1`
26 to 50%

Please give the measured pest or weed control at 25 ppm for this compound: `COc1ccc(C=NOc2ncc(F)c(N(C)Cc3ccc(OC)cc3)n2)cc1`
26 to 50%

Please give the measured pest or weed control at 25 ppm for this compound: `COc1ccc(C=NOc2ncc(F)c(NCc3ccccc3)n2)cc1`
26 to 50%

Please give the measured pest or weed control at 25 ppm for this compound: `CC(C)C=NOc1ncc(F)c(NCc2ccccc2)n1`
26 to 50%

Please give the measured pest or weed control at 25 ppm for this compound: `COc1ccc(C=NOc2ncc(F)c(N(C)Cc3ccc(Cl)cc3)n2)cc1`
26 to 50%

Please give the measured pest or weed control at 25 ppm for this compound: `O=CNc1nc(ON=Cc2ccccc2)ncc1F`
76 to 100%

Please give the measured pest or weed control at 25 ppm for this compound: `COc1ccc(CN(C)c2nc(ON=Cc3ccc(Cl)cc3)ncc2F)cc1`
26 to 50%

Please give the measured pest or weed control at 25 ppm for this compound: `CC(C)C=NOc1ncc(F)c(N(C)C)n1`
0 to 25%

Please give the measured pest or weed control at 25 ppm for this compound: `COc1ccc(C=NOc2ncc(F)c(N(C)Cc3ccccc3)n2)cc1`
26 to 50%

Please give the measured pest or weed control at 25 ppm for this compound: `COc1ccc(C=NOc2ncc(F)c(N)n2)cc1`
76 to 100%

Please give the measured pest or weed control at 25 ppm for this compound: `Cc1ccc(C=NOc2ncc(F)c(/N=C/N(C)C)n2)cc1`
76 to 100%

# credit: patent US8912207B2
